Please provide measured inhibition at 2 h, 10 µM for the entries that follow.
System: cytosolic enzymes that convert Formula Ia to Formula Ia′
Assay: in vitro
Settings: human, pH 7.4, % of Inhibition on Metabolite Formation of Compound Formula Ia
Hi, when you answer, please include the unit after the number. Thanks!

>>> result("CC(C)=CCC/C(C)=C/COc1c2ccoc2cc2oc(=O)ccc12")
"10%"

Noted inhibition at 2 h, 10 µM for `Cc1cccc(Nc2ccccc2C(=O)O)c1C` , tested on cytosolic enzymes that convert Formula Ia to Formula Ia′: 51.1%

###

System: cytosolic enzymes that convert Formula Ia to Formula Ia′
Experiment: in vitro
Conditions: human, pH 7.4, % Inhibition on Metabolite Formation of Compound Formula Ia
Give measured inhibition at 120 min, 100 μM for each item. Keep answers brief.
Answers are plain numbers, in %.

Record excerpt, results attached:
>>> quantitative_readout("Cc1ccc(C)c(OCCCC(C)(C)C(=O)O)c1")
27.4
>>> quantitative_readout("COc1ccc2c(c1)c(CC(=O)O)c(C)n2C(=O)c1ccc(Cl)cc1")
19
>>> quantitative_readout("CC(C)Cc1ccc(C(C)C(=O)O)cc1 (stereo not shown)")
33.4

Documented inhibition at 120 min, 100 μM of `O=C1OC(c2ccc(O)cc2)(c2ccc(O)cc2)c2ccccc21` : 86.1

###

Test system: cytosolic enzymes that convert Formula Ia to Formula Ia′
Assay: in vitro
Details: human, pH 7.4
result.type: IC50 at 120 min

Sample `O=C(O)c1cc(-c2ccc(F)cc2F)ccc1O` ; IC50 at 120 min observed: 1 µg/mL

###

Tested on: cytosolic enzymes that convert Formula Ia to Formula Ia′
Assay: in vitro
Settings: human, pH 7.4, % Inhibition on Metabolite Formation of Compound Formula Ia
result.type: inhibition at 2 h, 100 µM (%)
One number for each entry, in %.

Would you please look over these solved cases?
>>> quantitative_readout("O=C(O)c1ccccc1Nc1cccc(C(F)(F)F)c1 [Flufenamic acid]")
80.3
>>> quantitative_readout("Oc1ncnc2[nH]ncc12 [Allopurinol]")
2
>>> quantitative_readout("O=c1c(O)c(-c2ccc(O)c(O)c2)oc2cc(O)cc(O)c12 [Quercetin]")
33.4

Continue with the molecule presented below.
// inhibition at 2 h, 100 µM lookup, molecule = CC1=CC(=O)c2ccccc2C1=O [Menadione] , result: 29.7

###

Tested on: cytosolic enzymes that convert Formula Ia to Formula Ia′
Assay: Inhibition of metabolism of 14C-Formula Ia to Formula Ia′ in human liver S9
Format: in vitro ADME
Conditions: human, pH 7.4
Record form. Attribute: inhibition at 120 min, 100 µM. Fill in for each entry.
Answers are plain numbers, in %.

>>> quantitative_readout("O=c1c(O)c(-c2ccc(O)c(O)c2)oc2cc(O)cc(O)c12")
9.3

Turning now to a further record.
inhibition at 120 min, 100 µM measured on `CC1=CC(=O)c2ccccc2C1=O` = 18

###

Test: Clinical study of the effect of ibuprofen on pharmacokinetics of Formula Ia
Type: in vivo
Conditions: human; plasma Formula Ia; single 400 mg dose PO fasted; alone or with ibuprofen 600 mg TID; read-out: AUC(last), Mean (% CV)
Description: The study was conducted in an open-label, randomized, 3-period, 2-sequence crossover manner (FIG. 6). During Period 1, all 12 subjects were administered a single 400 mg dose of Formula Ia. During Periods 2 and 3, subjects received multiple doses of ibuprofen (600 mg TID) in a randomized sequence. […] The proportion of subjects with plasma concentrations above the in vitro IC50 and IC90 for the HCV replicon at each time point was determined. […]
result.type: AUC(0-t) (ng·h/mL)
One number for each entry, in ng·h/mL.

CC(C)(C)NC(=O)N[C@H](C(=O)N1C[C@H]2[C@@H]([C@H]1C(=O)NC(CC1CCC1)C(=O)C(N)=O)C2(C)C)C(C)(C)C (stereo partly shown) [Formula Ia] has a reported AUC(0-t) of 2000

###

Test system: cytosolic enzymes that convert Formula Ia to Formula Ia′
Assay: in vitro
Conditions: human, pH 7.4, % Inhibition on Metabolite Formation of Compound Formula Ia
result.type: inhibition at 120 min, 100 µM (%)
Numbers only, in %.

>>> quantitative_readout("COc1ccc2c(c1)c(CC(=O)O)c(C)n2C(=O)c1ccc(Cl)cc1")
19
>>> quantitative_readout("Cc1ccc(C)c(OCCCC(C)(C)C(=O)O)c1")
27.4

The reported inhibition at 120 min, 100 µM of the molecule CC(C)Cc1ccc(C(C)C(=O)O)cc1 (stereo not drawn) was 31.4

###

Test system: cytosolic enzymes that convert Formula Ia to Formula Ia′
Assay: in vitro
Details: human, pH 7.4, % of Inhibition on Metabolite Formation of Compound Formula Ia
result.type: inhibition at 2 h, 500 µM (%)
Answers are plain numbers, in %.

Sample `O=C(O)CCc1nc(-c2ccccc2)c(-c2ccccc2)o1` ; inhibition at 2 h, 500 µM observed: 76.1

###

Test system: cytosolic enzymes that convert Formula Ia to Formula Ia′
Assay: in vitro
Details: human, pH 7.4, % Inhibition on Metabolite Formation of Compound Formula Ia
result.type: inhibition at 120 min, 50 µM (%)
Answers are plain numbers, in %.

# inhibition at 120 min, 50 µM (compound: CC(C)Cc1ccc(C(C)C(=O)O)cc1 (stereo not shown) ) is 21.9

###

Tested on: cytosolic enzymes that convert Formula Ia to Formula Ia′
Test: in vitro
Settings: human, pH 7.4, % Inhibition on Metabolite Formation of Compound Formula Ia
result.type: inhibition at 120 min, 1000 µM (%)
Answers are plain numbers, in %.

# inhibition at 120 min, 1000 µM of CC(C)Cc1ccc(C(C)C(=O)O)cc1 (stereo not shown) = 70

###

System: cytosolic enzymes that convert Formula Ia to Formula Ia′
Assay: in vitro
Settings: human, pH 7.4, % Inhibition on Metabolite Formation of Compound Formula Ia
result.type: inhibition at 120 min, 200 µM (%)
Answers are plain numbers, in %.

With cytosolic enzymes that convert Formula Ia to Formula Ia′ as the test system, CC(C)Cc1ccc(C(C)C(=O)O)cc1 (stereo not shown) showed inhibition at 120 min, 200 µM of 40.7

###

Test system: cytosolic enzymes that convert Formula Ia to Formula Ia′
Experiment: in vitro
Conditions: human, pH 7.4, % Inhibition on Metabolite Formation of Compound Formula Ia
result.type: inhibition at 2 h, 1 µM (%)
Numbers only, in %.

Entry `C#CCN(C)Cc1ccccc1` : inhibition at 2 h, 1 µM on cytosolic enzymes that convert Formula Ia to Formula Ia′ = 0

###

Test system: cytosolic enzymes that convert Formula Ia to Formula Ia′
Experiment: in vitro
Details: human, pH 7.4, % of Inhibition on Metabolite Formation of Compound Formula Ia
result.type: inhibition at 2 h, 7 µM
Quote the value and follow it with the unit of measurement.

Entry under test: `O=C(O)Cc1ccccc1Nc1c(Cl)cccc1Cl` . Its inhibition at 2 h, 7 µM was 57.3%

###

Kindly state inhibition at 120 min for each of the entries shown.
Tested on: cytosolic enzymes that convert Formula Ia to Formula Ia′
Experiment: Inhibition of metabolism of 14C-Formula Ia to Formula Ia′ in human liver cytosol
Details: human, pH 7.4
Give bare numbers, in %.

>>> quantitative_readout("CN1C(=O)CN=C(c2ccccc2F)c2cc([N+](=O)[O-])ccc21")
51

Value of measured inhibition at 120 min for the entry `Cc1ncc2n1-c1ccc(Cl)cc1C(c1ccccc1F)=NC2` : 37

###

Can you tell me inhibition at 120 min for the items I'm about to list?
System: cytosolic enzymes that convert Formula Ia to Formula Ia′
Test: in vitro
Conditions: human, pH 7.4, inhibited formation of the compound of Formula Ia′
Numbers only, in %.

>>> quantitative_readout("O=C1OC(c2ccc(O)cc2)(c2ccc(O)cc2)c2ccccc21 [Phenolphthalein]")
86.1

// next entry
Documented inhibition at 120 min of O=C(O)c1ccccc1Nc1cccc(C(F)(F)F)c1 [Flufenamic acid] : 80.3

###

Test system: cytosolic enzymes that convert Formula Ia to Formula Ia′
Assay: in vitro
Details: human, pH 7.4, % of Inhibition on Metabolite Formation of Compound Formula Ia
result.type: inhibition at 2 h, 4 µM (%)
Numbers only, in %.

Documented inhibition at 2 h, 4 µM of O=C(c1ccccc1)c1ccc2n1CCC2C(=O)O (stereo not shown) : 0

###

Tested on: cytosolic enzymes that convert Formula Ia to Formula Ia′
Test: in vitro
Conditions: human, pH 7.4, % Inhibition on Metabolite Formation of Compound Formula Ia
result.type: inhibition at 120 min, 2 μM (%)
Give bare numbers, in %.

The compound listed as `Cc1ccc(-c2cc(C(F)(F)F)nn2-c2ccc(S(N)(=O)=O)cc2)cc1` has a reported inhibition at 120 min, 2 μM of 8.42

###

System: cytosolic enzymes that convert Formula Ia to Formula Ia′
Assay: in vitro
Details: human, pH 7.4, % of Inhibition on Metabolite Formation of Compound Formula Ia
result.type: inhibition at 2 h, 1 µM (%)
Numbers only, in %.

// molecule `Cc1cccc(Nc2ccccc2C(=O)O)c1C` , assay cytosolic enzymes that convert Formula Ia to Formula Ia′, inhibition at 2 h, 1 µM value: 14.6
